Cited source: patent US20250144067A1

Test system: NCI-H292 lung cancer cells
Test: FDA drug screening, complete media vs cholesterol-free media with simvastatin (TABLE 2)
Assay type: cell-based, human
Conditions: NCI-H292 cells, drug in complete media
Each entry below carries its recorded Complete Media.

Some compounds with known Complete Media results, for comparison:
compound	Complete Media
O=C(O)[C@@H](S)[C@@H](S)C(=O)O [Succimer]	1.035
Cc1cn([C@H]2C=C[C@@H](CO)O2)c(=O)[nH]c1=O [Stavudine]	0.8293
Cc1cnc(C(=O)NCCc2ccc(S(=O)(=O)NC(=O)NC3CCCCC3)cc2)cn1 [Glipizide]	1.2

compound OCCN1C[C@H](O)[C@@H](O)[C@H](O)[C@H]1CO [Miglitol] , Complete Media observed: 1.199

compound CS(=O)(=O)OC[C@H](O)[C@@H](O)COS(C)(=O)=O [Treosulfan] , Complete Media observed: 1.032

compound CC(=O)NC[C@H]1CN(c2ccc(N3CCOCC3)c(F)c2)C(=O)O1 [Linezolid] , Complete Media observed: 1.187

compound c1cnc(N2CCN(Cc3ccc4c(c3)OCO4)CC2)nc1 [Piribedil] , Complete Media observed: 0.9878

compound COc1cc([C@@H]2c3cc4c(cc3[C@@H](O[C@@H]3O[C@@H]5CO[C@@H](C)O[C@H]5[C@H](O)[C@H]3O)[C@H]3COC(=O)[C@H]23)OCO4)cc(OC)c1O [Etoposide] , Complete Media observed: 0.5014

compound CCOC(=O)[C@H](CCc1ccccc1)N[C@H]1CCCN2CCC[C@@H](C(=O)O)N2C1=O [Cilazapril (monohydrate)] , Complete Media observed: 1.104

----------
Each entry below carries its recorded Complete Media.
Tested on: NCI-H292 lung cancer cells
Assay: FDA drug screening, complete media vs cholesterol-free media with simvastatin (TABLE 2)
Assay type: cell-based, human
Details: NCI-H292 cells, drug in complete media
Where a name gives a salt, the structure may show the parent alone.
Field format: numeric only.

Some molecules with known Complete Media results, for comparison:
molecule	Complete Media
CCOc1nc2cccc(C(=O)OC(C)OC(=O)OC3CCCCC3)c2n1Cc1ccc(-c2ccccc2-c2nnn[nH]2)cc1 (stereo not shown)	0.9738
C=CCC(C(=O)NC(N)=O)C(C)C (stereo not shown)	1.479
C[C@H](O)[C@H](O)[C@H]1CNc2nc(N)[nH]c(=O)c2N1 [Sapropterin (dihydrochloride)]	0.9841
CC#CCC(C)[C@H](O)/C=C/[C@@H]1[C@H]2C/C(=C/CCCC(=O)O)C[C@H]2C[C@H]1O (stereo partly shown)	0.9963
Nc1ncnc2c1ncn2[C@@H]1O[C@H](COP(=O)(O)OP(=O)(O)OP(=O)(O)O)[C@@H](O)[C@H]1O	0.8041

molecule CC(=O)Nc1ccc(C(=O)O)cc1.CC(=O)Nc1ccc(C(=O)O)cc1.CC(=O)Nc1ccc(C(=O)O)cc1.CC(O)CN(C)C.CC(O)CN(C)C.CC(O)CN(C)C.O=c1[nH]cnc2c1ncn2[C@@H]1O[C@H](CO)[C@@H](O)[C@H]1O , Complete Media observed: 0.9799

molecule CCCc1nc(C(C)(C)O)c(C(=O)O)n1Cc1ccc(-c2ccccc2-c2nnn[nH]2)cc1 , Complete Media observed: 0.942

----------
Each entry below carries its recorded Cholesterol-free.
Tested on: NCI-H292 lung cancer cells
Assay: FDA drug screening, complete media vs cholesterol-free media without statin (TABLE 1)
Format: cell-based, human
Details: NCI-H292 cells, cholesterol-free media without statin, FDA drug library screen
Counter-ions that a name gives are not always drawn.
Field format: numeric only.

Some molecules with known Cholesterol-free results, for comparison:
molecule	observable	reported-measurement
CC(O)C(=O)O.CCOc1ccc2nc3cc(N)ccc3c(N)c2c1.O [Ethacridine (lactate monohydrate)]	Cholesterol-free	0.2006
CN1CCc2c(c3ccccc3n2Cc2ccccc2)C1 [Mebhydrolin (napadisylate)]	Cholesterol-free	1.008
CN(C)CCC=C1c2ccccc2CCc2ccccc21 [Amitriptyline (hydrochloride)]	Cholesterol-free	0.8567

molecule Cc1ncc([N+](=O)[O-])n1CC(O)CCl (stereo not shown) [Ornidazole] , Cholesterol-free observed: 0.6543

molecule CC1=C(C(=O)Nc2ccccc2)SCCO1 [Carboxin] , Cholesterol-free observed: 1.397

molecule CNCC(=O)N[C@@H](CCCN=C(N)N)C(=O)N[C@H](C(=O)N[C@@H](Cc1ccc(O)cc1)C(=O)N[C@H](C(=O)N[C@@H](Cc1cnc[nH]1)C(=O)N1CCC[C@H]1C(=O)N[C@@H](C)C(=O)O)C(C)C)C(C)C [Saralasin (TFA)] , Cholesterol-free observed: 1.11

molecule CC[C@@]1(O)C(=O)OCc2c1cc1n(c2=O)Cc2c-1nc1ccccc1c2CCNC(C)C [Belotecan (hydrochloride)] , Cholesterol-free observed: 0.00566
